# Measurement Target: Mu-type opioid receptor (Rattus norvegicus, UniProt P33535)
# Sequence (P33535 whole entry): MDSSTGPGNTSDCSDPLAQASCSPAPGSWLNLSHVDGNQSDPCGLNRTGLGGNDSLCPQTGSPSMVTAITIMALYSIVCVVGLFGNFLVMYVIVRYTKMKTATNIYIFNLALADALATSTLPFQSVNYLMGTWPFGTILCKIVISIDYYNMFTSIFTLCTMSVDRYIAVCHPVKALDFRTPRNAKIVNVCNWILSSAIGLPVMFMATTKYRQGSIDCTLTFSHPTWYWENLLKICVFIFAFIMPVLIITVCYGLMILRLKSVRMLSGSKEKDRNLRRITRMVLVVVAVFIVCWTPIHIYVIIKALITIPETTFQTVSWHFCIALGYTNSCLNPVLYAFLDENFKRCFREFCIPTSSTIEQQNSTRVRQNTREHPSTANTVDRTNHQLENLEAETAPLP
pKi: −log10 of the molar value.
Where pKi equals or exceeds 7, the correct label is Fulfilled; where it does not, the label is Not fulfilled.

Check this molecule for pKi at or above 7: CO[C@@H](C)CN1CC[C@@]2(C)c3cc(O)ccc3C[C@H]1[C@H]2C
Not fulfilled

Decide: is the reported value of pKi for CO[C@H](C)CN1CC[C@]2(C)c3cc(O)ccc3C[C@H]1C2(C)C equal to or greater than 7?
Not fulfilled

Answer whether pKi of CO[C@@H](C)CN1CC[C@]2(C)c3cc(O)ccc3C[C@@H]1[C@H]2C is greater than or equal to 7.
Fulfilled

I'd appreciate it if you could say whether CO[C@@H](C)CN1CC[C@]2(C)c3ccc(O)cc3C[C@H]1C2(C)C has pKi at least equal to 7.
Not fulfilled

Could you verify whether the entry CO[C@H](C)CN1CC[C@@]2(C)c3ccccc3C[C@@H]1C2(C)C shows pKi of no less than 7?
Not fulfilled

Confirm if pKi reported for the molecule CO[C@@H](C)CN1CC[C@@]2(C)c3c(O)cccc3C[C@@H]1C2(C)C is 7 or above.
Fulfilled

Dear colleague, could you confirm whether CO[C@@H](C)CN1CC[C@@]2(C)c3cc(O)ccc3C[C@@H]1C2(C)C has pKi at or above 7?
Fulfilled

----------
# Measurement Target: Mu-type opioid receptor (Rattus norvegicus)
Please respond with satisfied when measured Ki is strictly beneath 200 nM, and with not satisfied in all other cases.

Ki strictly < 200 nM for this molecule? CS[C@H](C)CN1CC[C@]2(C)c3cc(O)ccc3C[C@@H]1[C@H]2C
not satisfied

Please let me know if CO[C@H](C)CN1CC[C@@]2(C)c3ccc(O)cc3C[C@@H]1C2(C)C shows Ki below 200 nM.
not satisfied

Answer whether the molecule CO[C@H](C)CN1CC[C@]2(C)c3cc(O)ccc3C[C@@H]1[C@H]2C has Ki strictly less than 200 nM
not satisfied

Here's an entry: COC(C)(C)CN1CC[C@]2(C)c3cc(O)ccc3C[C@@H]1[C@@H]2C . Is its Ki below 200 nM?
satisfied

Dear colleague, could you confirm whether Ki of CO[C@H](C)CN1CC[C@@]2(C)c3cc(O)ccc3C[C@H]1[C@H]2C falls below 200 nM? Thanks.
not satisfied

In plain terms, does CS[C@@H](C)CN1CC[C@]2(C)c3cc(O)ccc3C[C@@H]1[C@@H]2C come in under 200 nM for Ki?
satisfied

Ki strictly < 200 nM for this molecule? CO[C@H](C)CN1CC[C@]2(C)c3cc(O)ccc3C[C@@H]1[C@@H]2C
satisfied

# strict comparison: is reported Ki < 200 nM? input = CO[C@H](C)CN1CC[C@@]2(C)c3c(O)cccc3C[C@@H]1C2(C)C
not satisfied

Decide: Ki of CO[C@@H](C)CN1CC[C@]2(C)c3cc(O)ccc3C[C@@H]1[C@@H]2C strictly below 200 nM?
satisfied

Please let me know if CO[C@@H](C)CN1CC[C@]2(C)c3cc(O)ccc3C[C@H]1C2(C)C shows Ki below 200 nM.
not satisfied

Record CO[C@@H](C)CN1CC[C@@]2(C)c3ccc(O)cc3C[C@@H]1C2(C)C : is its Ki strictly below 200 nM?
satisfied

Identify whether the molecule CO[C@H](C)CN1CC[C@@]2(C)c3cc(O)ccc3C[C@H]1[C@@H]2C records Ki below 200 nM.
not satisfied

Identify whether the molecule CS[C@H](C)CN1CC[C@]2(C)c3cc(O)ccc3C[C@@H]1[C@@H]2C records Ki below 200 nM.
satisfied
